Molecular target: Syk (Homo sapiens, UniProt P43405)
Construct: Purified Syk catalytic domain (aa 356-635 with a C-terminal His-tag purified in-house); His-tag (C); made in house
Test: In vitro Syk kinase activity measured by trFRET
Type: biochemical
Settings: Syk catalytic domain, 0.001 mM ATP
pIC50: −log10 of the molar value.
value-kind: pIC50

CC(=O)N1C[C@H](O)C[C@@H]1c1nc(-c2ccc(C3(O)CCC3)cc2)c2cnc3[nH]ccc3n12 ... 7.52 to 8.00
COc1ccc(-c2nc([C@H]3C[C@@H](O)CN3C(C)=O)n3c2cnc2[nH]cc(C)c23)cc1 ... 7.00 to 7.52
CC(=O)N1C[C@H](O)C[C@@H]1c1nc(-c2ccc(C(F)(F)F)cc2)c2cnc3[nH]ccc3n12 ... 7.00 to 7.52
CC(=O)N1C[C@H](O)C[C@@H]1c1nc(-c2ccc3c(c2)OCO3)c2cnc3[nH]ccc3n12 ... < 7.00
CC(=O)N1C[C@H](O)C[C@@H]1c1nc(-c2ccc(N3CCO[C@@H](C)C3)cc2)c2cnc3[nH]ccc3n12 [Example #5 (S)] ... > 8.00
COc1ccc(-c2nc([C@H]3C[C@@H](O)CN3C(=O)CF)n3c2cnc2[nH]ccc23)cc1 ... 7.52 to 8.00
CC(=O)N1C[C@H](O)C[C@@H]1c1nc(-c2ccc(NC(C)C)cc2)c2cnc3[nH]ccc3n12 ... 7.52 to 8.00
CC(=O)N1C[C@H](O)C[C@@H]1c1nc(-c2ccc(OCCN3CCOCC3)cc2)c2cnc3[nH]ccc3n12 ... 7.52 to 8.00
CNc1ccc(-c2nc([C@H]3C[C@@H](O)CN3C(C)=O)n3c2cnc2[nH]ccc23)cc1 ... 7.52 to 8.00
CC(=O)N1C[C@H](O)C[C@@H]1c1nc(-c2ccc(OC(C)C)cc2)c2cnc3[nH]ccc3n12 ... 7.52 to 8.00

Value lookup for pIC50; key = `COc1ccc(-c2nc([C@H]3C[C@@H](O)CN3C(C)=O)n3c2cnc2[nH]ccc23)cc1`
7.52 to 8.00

Value lookup for pIC50; key = `CC(=O)N1C[C@H](O)C[C@@H]1c1nc(-c2ccc(N3CCOCC3)cc2)c2cnc3[nH]cc(Cl)c3n12`
> 8.00

Value lookup for pIC50; key = CC(=O)N1C[C@H](O)C[C@@H]1c1nc(-c2ccc(N3CCO[C@H](C)C3)cc2)c2cnc3[nH]ccc3n12 [Example #5 (R)]
> 8.00

Value lookup for pIC50; key = `COCCOc1ccc(-c2nc([C@H]3C[C@@H](O)CN3C(=O)CF)n3c2cnc2[nH]ccc23)cc1`
7.52 to 8.00

###

Target: Syk (Homo sapiens, UniProt P43405)
pIC50: −log10 of the molar value.
value-kind: pIC50

CC(=O)N1C[C@H](O)C[C@@H]1c1nc(-c2ccsc2)c2cnc3[nH]ccc3n12 ... 7.52 to 8.00

Field: pIC50 (Syk (Homo sapiens, UniProt P43405)). Entry: `COCc1ccc(-c2nc([C@H]3C[C@@H](O)CN3C(C)=O)n3c2cnc2[nH]ccc23)cc1`
7.00 to 7.52

Field: pIC50 (Syk (Homo sapiens, UniProt P43405)). Entry: `CC(=O)N1C[C@H](O)C[C@@H]1c1nc(-c2ccc(C(C)(C)O)cc2)c2cnc3[nH]ccc3n12`
> 8.00

Field: pIC50 (Syk (Homo sapiens, UniProt P43405)). Entry: `COc1ccc(-c2nc([C@H]3C[C@@H](O)CN3C(C)=O)n3c2cnc2[nH]ccc23)cc1C`
7.52 to 8.00

###

Let's go through some pIC50 measurements on Syk (Homo sapiens, UniProt P43405) together.
pIC50: −log10 of the molar value.

Here's what some known entries look like.
CC(=O)N1C[C@H](O)C[C@@H]1c1nc(-c2ccc(C(C)(C)C#N)cc2)c2cnc3[nH]ccc3n12 [F.1.16] ... > 8.00
CC(=O)N1C[C@H](O)C[C@@H]1c1nc(-c2ccc(OC3CC3)cc2)c2cnc3[nH]ccc3n12 [F.1.31] ... 7.52 to 8.00
CC(=O)N1C[C@H](O)C[C@@H]1c1nc(-c2ccc(N3CC(F)(F)C3)cc2)c2cnc3[nH]ccc3n12 [F.1.9] ... > 8.00

Next molecule, pIC50 to be filled in.
Field: pIC50 (Syk (Homo sapiens, UniProt P43405)). Entry: CCOc1ccc(-c2nc([C@H]3C[C@@H](O)CN3C(C)=O)n3c2cnc2[nH]cc(Cl)c23)cc1 [F.1.11]
7.52 to 8.00
